- Test system: RPMI-8226
quantity-measured: GI50 (µM)
One number for each entry, in µM.

Examples with answers:
[
  {
    "compound-structure": "Cc1cc2nc3c4cc(O)ccc4n(CCN(C)C)c3nc2cc1C",
    "GI50 [µM]": 0.366
  },
  {
    "compound-structure": "COc1ccc2c(c1)c1nc3cc(C)c(C)cc3nc1n2CCN(C)C",
    "GI50 [µM]": 0.64
  },
  {
    "compound-structure": "Cc1cc2nc3c4cc([N+](=O)[O-])ccc4n(CCN(C)C)c3nc2cc1C",
    "GI50 [µM]": 0.389
  }
]

*Q* Param readout = GI50; param system = RPMI-8226; param query = Cc1cc2nc3c4cc(N)ccc4n(CCN(C)C)c3nc2cc1C ; response: value
*A* 0.74
